PROCEDURE_TEXT: Cell Viability - LYMP2-001 (AID 921);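 also: cells exposed to compound for 24 h at 37 °C; nearly all actives have a fitted effect of over 70% in size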
PARTICULARS: LYMP2-001 lymphoblastoid cell viability; series mostly up to 92.2 µM
Inconclusive results are not listed. Activity calls are given as the source filed them. Calls follow the shape of the dose curve; as a rule, active = well fitted cell-killing curve with a large enough effect; inconclusive = small, poorly fitted or top-dose-only effect; inactive = no such curve, though single readings can be large or run the other way.
Outcome codes: active, inactive

>>> class_name("N#C/C=C/C#N")
"active"
>>> class_name("O=C(O)C(Cl)Br (stereo unspecified)")
"inactive"
>>> class_name("OCCBr")
"inactive"
>>> class_name("Clc1ccc(C(Cl)(Cl)Cl)c(Cl)c1")
"inactive"
>>> class_name("C=C(C)CCl")
"inactive"
>>> class_name("Cl/C=C\\Cl")
"inactive"
>>> class_name("CN(C)C(=O)Nc1ccc(Cl)cc1")
"inactive"
>>> class_name("Nc1ccc([N+](=O)[O-])cc1[N+](=O)[O-]")
"inactive"
>>> class_name("ClP(Cl)(Cl)(Cl)Cl")
"inactive"
>>> class_name("CCCCOC(C)=O")
"inactive"
>>> class_name("O=C(Cl)OCc1ccccc1")
"inactive"
>>> class_name("C=COC(C)=O")
"inactive"
>>> class_name("COC(C)(C)C")
"inactive"
>>> class_name("ClCCOCOCCCl")
"inactive"
>>> class_name("Clc1ccc(C(Cl)(Cl)Cl)cc1Cl")
"inactive"
>>> class_name("CC[N+](=O)[O-]")
"inactive"
>>> class_name("Cc1ccc(N)cc1C")
"inactive"
>>> class_name("CC(=O)NNc1ccccc1")
"inactive"
>>> class_name("CN(C)c1ccc(N=Nc2ccccc2)cc1")
"inactive"
>>> class_name("CC(C)CC(C)N (stereo unspecified)")
"inactive"
>>> class_name("COc1cc(-c2ccc(N)c(OC)c2)ccc1N")
"inactive"
>>> class_name("FC(Cl)(Cl)Cl")
"inactive"
>>> class_name("CN(C)c1ccc(N(C)C)cc1")
"active"
>>> class_name("C=CC#N")
"inactive"
>>> class_name("ClC=CCl")
"inactive"
>>> class_name("BrCC(Br)C1CCC(Br)C(Br)C1 (stereo unspecified)")
"inactive"
>>> class_name("Clc1ccc(C(c2ccccc2Cl)C(Cl)(Cl)Cl)cc1 (stereo unspecified)")
"inactive"
>>> class_name("Oc1cccc(Cl)c1Cl")
"inactive"
>>> class_name("CN(C)N=O")
"inactive"
>>> class_name("C=CCO")
"inactive"
>>> class_name("N#CCBr")
"inactive"
>>> class_name("Nc1ccc([N+](=O)[O-])cc1N")
"inactive"
>>> class_name("ClCC(Cl)Cl")
"inactive"
>>> class_name("OCCCCO")
"inactive"
>>> class_name("ClC(Cl)Br")
"inactive"
>>> class_name("O=[N+]([O-])c1cccc(O)c1")
"inactive"
>>> class_name("O=[N+]([O-])CCO")
"inactive"
>>> class_name("CCCCNC(=O)n1c(NC(=O)OC)nc2ccccc21")
"inactive"
>>> class_name("Cc1ccc(OP(=O)(Oc2ccc(C)cc2)Oc2ccc(C)cc2)cc1")
"inactive"
>>> class_name("CCCCCCCCCCCCCl")
"inactive"
>>> class_name("Cc1ccccc1[N+](=O)[O-]")
"inactive"
>>> class_name("O=C(Cc1ccccc1)OCc1ccccc1")
"inactive"
>>> class_name("CCCCC(CC)COC(=O)c1ccc(C(=O)OCC(CC)CCCC)c(C(=O)OCC(CC)CCCC)c1 (stereo unspecified)")
"inactive"
>>> class_name("O=[N+]([O-])c1ccc2c3c(cccc13)CC2")
"inactive"
>>> class_name("C=CCc1cc(OC)c2c(c1)OCO2")
"inactive"
>>> class_name("c1ccc(N=NNc2ccccc2)cc1")
"inactive"
>>> class_name("NNC(N)=S")
"inactive"
>>> class_name("O=[N+]([O-])c1ccccc1O")
"inactive"
>>> class_name("Oc1cc(Cl)cc(Cl)c1")
"inactive"
>>> class_name("CCCCCCCCCCCOC(=O)c1ccccc1C(=O)OCCCCCCCCCCC")
"inactive"
>>> class_name("C=CCBr")
"inactive"
>>> class_name("O=Cc1ccc(Cl)cc1Cl")
"inactive"
>>> class_name("CC(=O)CCC(C)=O")
"inactive"
>>> class_name("O=NN1CCCCC1")
"inactive"
>>> class_name("C=CC(=O)OCCN(C)C")
"inactive"
>>> class_name("CNC(=O)O/N=C/C(C)(C)S(C)=O (stereo unspecified)")
"inactive"
>>> class_name("CCBr")
"inactive"
>>> class_name("O=Cc1ccc2c(c1)OCO2")
"inactive"
>>> class_name("Cc1cccc(C)c1N")
"inactive"
>>> class_name("CCSC(=O)N1CCCCCC1")
"inactive"
>>> class_name("O=C(O)C(Br)Br")
"inactive"
>>> class_name("Cc1ccc2c(C)cccc2c1")
"inactive"
>>> class_name("OCC(Cl)CCl (stereo unspecified)")
"inactive"
>>> class_name("CCCCCC[N+](=O)[O-]")
"inactive"
>>> class_name("CC(C)OC(=O)Cc1ccccc1")
"inactive"
>>> class_name("ClCCCCl")
"inactive"
>>> class_name("Nc1c(Br)cc([N+](=O)[O-])cc1[N+](=O)[O-]")
"inactive"
>>> class_name("O=C(O)CBr")
"inactive"
>>> class_name("CCOS(C)(=O)=O")
"inactive"
>>> class_name("CC(C)(COCC1CO1)COCC1CO1 (stereo unspecified)")
"inactive"
>>> class_name("CSSC")
"inactive"
